- System: Plasmodium falciparum
- Procedure text: Resistance index, ratio of IC50 for chloroquinone-resistant Plasmodium falciparum Dd2 to IC50 for chloroquinone-sensitive Plasmodium falciparum D10
- Format: functional
Below is a list of entries, each paired with its recorded Ratio IC50 value.
Reply with just the number.

Illustrative cases are given below, each with its answer.
>  <Structure smiles string>
Cc1ccc(CCCc2ccc(CN3CCCCC3)c(O)c2)cc1

>  <Numeric readout>
3.06

$$$$
>  <Structure smiles string>
Oc1ccc(CCCc2ccc(C(F)(F)F)cc2)cc1CN1CCCCC1

>  <Numeric readout>
5.8

$$$$
>  <Structure smiles string>
Cl.Oc1cc(CCCc2ccccc2)ccc1CN1CCCCC1

>  <Numeric readout>
1.35

$$$$

Request: Quote Ratio IC50 reported for COc1ccc(CCCc2cc(O)c(CN3CCCCC3)cc2CN2CCCCC2)cc1 please.
Result: 1.47

Request: Quote Ratio IC50 reported for Cl.Oc1cc(CCCc2ccc(F)cc2)ccc1CN1CCCCC1 please.
Result: 0.79

Request: Quote Ratio IC50 reported for COc1ccc(CCCc2ccc(CN3CCCCC3)c(O)c2)cc1.Cl please.
Result: 1

----------
- Tested on: Plasmodium falciparum
- Procedure text: Antiplasmodial activity chloroquinone-sensitive Plasmodium falciparum NF54 by parasite lactate dehydrogenase assay
- Format: functional, organism-based
- Test settings: Plasmodium falciparum, NF54
pIC50: −log10 of the molar value.
Readout: pIC50

Illustrative cases are given below, each with its answer.
>  <Structure smiles string>
Oc1ccccc1CN1CCCCC1

>  <Assay target>
Plasmodium falciparum

>  <Result>
< 5.30

$$$$
>  <Structure smiles string>
Cc1ccc(S(=O)(=O)Oc2cc(CCCc3ccc(F)cc3)ccc2CN2CCCCC2)cc1

>  <Assay target>
Plasmodium falciparum

>  <Result>
< 5.70

$$$$

Here is another compound to look at.
Request: Quote pIC50 reported for CC(C)Nc1ccc(CCCc2cccc(O)c2)cc1 please.
Result: < 5.52
